// data source = PubChem BioAssay (NCI)

- Tested on: SF-268 CNS
- test-details: NCI-60 one-dose screen, 48 h (100 = growth as untreated, 0 = no growth, -100 = all killed)
- condition-notes: 10 µM unless noted
Compounds without any hit were thinned out: in the full panel of roughly 83,000, 20% have a hit.
hey, just use Yes if measured growth is less than 60%, otherwise No

Below, 5 molecules whose answers are already recorded.
O=CCCCC(O)C=O (configuration not stated) ... No
CCOC(=O)c1sc(-c2ccc(OS(=O)(=O)c3ccc(Br)s3)c(C=O)c2)nc1C ... Yes
CCN(CC)c1cc(C)c2cc(NC(=O)c3cccc(OC)c3)ccc2n1 ... No
CCCCN1CCN(c2ccc3nc(-c4ccc5nc(-c6ccc(C(F)(F)F)cc6)[nH]c5c4)[nH]c3c2)CC1 ... Yes
COc1cc(C2CC(c3ccc(Nc4nc(NCCO)nc(N5CCOCC5)n4)cc3)=NN2c2cc(Cl)cc(Cl)c2)cc(OC)c1OC (configuration not stated) ... Yes

Task: Could you please tell me whether growth recorded for CNCCNc1nc2ccccc2c2c(=O)c3cc(OC)ccc3sc12 is less than 60%?
Result: Yes

---

- System: SF-295 CNS
- test-details: NCI-60 one-dose screen, 48 h (100 = growth as untreated, 0 = no growth, -100 = all killed)
- condition-notes: 10 µM unless noted
Compounds without any hit were thinned out: in the full panel of roughly 83,000, 20% have a hit.
hey, just use yes (1) if measured growth is less than 40%, otherwise no (0)

Task: Could you please tell me whether growth recorded for O=C(Nc1ncc(Cc2cccc(C(F)(F)F)c2)s1)C1COc2ccccc2O1 (stereo not drawn) is less than 40%?
Result: no (0)

---

- Test system: UACC-62 melanoma
- test-details: NCI-60 one-dose screen, 48 h (100 = growth as untreated, 0 = no growth, -100 = all killed)
- condition-notes: 10 µM unless noted
This is part of a sample that, as a whole, favours compounds with a hit. Of some 83,000 tested, about 20% had one in any assay.
Decide using growth: a value greater than or equal to 60% is 1, a smaller one is -1.

Below, 8 molecules whose answers are already recorded.
O=C(Cn1cc(COc2ncnc3c2cnn3-c2ccccc2)nn1)Nc1ccccn1 ... 1
O=C(Nc1ccc(-c2nc3ccc(NC(=O)c4ccc(Cl)cc4)cc3[nH]2)cc1)c1ccc(Cl)cc1 ... -1
COc1ccccc1C1=C(Br)C(=O)c2nc(C)ccc2C1=O ... 1
COc1ccc(-c2nc(-c3ccccn3)c(-c3ccccn3)n2CC(C)C)cc1OC1CCCC1 ... -1
CC1CCCCN1CCCNC(=O)c1ccc2c(c1)sc1nc(-c3ccc(F)cc3)cn12 (configuration not stated) ... 1
COc1cccc(/C(C#N)=C/c2nc3c(N4CCOCC4)nc(Cl)nc3n2C)c1 ... -1
COc1ccc(CN2CCCC(C(=O)c3ccc(C(F)(F)F)cc3)C2)c(O)c1 (configuration not stated) ... -1
COc1ccc(CCN2C(=O)CCSC2=S)cc1 ... 1

Task: Is reported growth greater than or equal to 60% here: CCCC(c1nnnn1C1CCCCC1)N1CCN(C(=O)c2ccco2)CC1 (configuration not stated)
Result: -1

Task: Is reported growth greater than or equal to 60% here: CCOC(=O)c1cnc2c(C)cccc2c1Nc1ccc(C(C)=O)cc1
Result: -1

Task: Is reported growth greater than or equal to 60% here: COc1ccc(-c2nsc3c2NC(=O)CC3c2ccsc2)cc1 (configuration not stated)
Result: -1

Task: Is reported growth greater than or equal to 60% here: COc1c2ccoc2c(/C=C/C=O)c2oc(-c3ccccc3)cc(=O)c12
Result: 1

Task: Is reported growth greater than or equal to 60% here: OC(c1ccccc1)c1nnc(SCc2ccccc2)n1Cc1ccccc1 (configuration not stated)
Result: 1

Task: Is reported growth greater than or equal to 60% here: Cn1c2c(c(=O)[nH]c1=O)NC1=C(C(=O)c3ccccc31)C1(C=C(O)c3ccccc31)N2 (configuration not stated)
Result: 1

Task: Is reported growth greater than or equal to 60% here: O=C(Nc1ccc(Cl)cc1)N1CCN(c2ccc3nncn3n2)CC1
Result: -1

Task: Is reported growth greater than or equal to 60% here: COc1nc2c(c(=O)n1C)N=C1c3ccccc3C(=O)C1C(c1ccccc1)N2 (configuration not stated)
Result: 1

---

- System: SK-MEL-2 melanoma
- test-details: NCI-60 one-dose screen, 48 h (100 = growth as untreated, 0 = no growth, -100 = all killed)
- condition-notes: 10 µM unless noted
Compounds without any hit were thinned out: in the full panel of roughly 83,000, 20% have a hit.
Measured growth by item
Number only, in %; omit the unit.

CCOC(=O)c1cnc2ccc(Cl)cc2c1NCCCN(C)C ... -0.411
O=C(Nc1ccc(Cl)cc1)c1cc2ccccc2cc1OP(=O)(O)O ... 7.63
O=C(Nc1ccc(-c2nc3ccc(NC(=O)c4ccc(Cl)cc4)cc3[nH]2)cc1)c1ccc(Cl)cc1 ... -33.9
O=c1oc2ccc(Cl)cc2c(=O)n1-c1ccc(F)cc1F ... -26.4
COc1ccc2oc(=O)cc(Cn3cc(Cn4cnc5c4c(=O)n(C)c(=O)n5C)nn3)c2c1 ... 106
FC(F)(F)c1cccc(Nc2nc(-c3ccccc3)nc3ncccc23)c1 ... 104
COC(=O)[C@H]1CCCN1C(=O)[C@H]1CCCN1C(=O)[C@H](Cc1c[nH]c2ccccc12)NC(=S)Nc1cc(C(F)(F)F)cc(C(F)(F)F)c1 ... 94.9
Cc1cc(Br)c(N)c(Br)c1 ... 110
O=c1oc2ccc(I)cc2c(=O)n1-c1ccc(Br)cc1F ... -27.7
C1=CC2(C=C1)OC21CCC2(C=CC3(C2)OC3C2CCCCC2)CC1 (configuration not stated) ... 104

Task: Return reported growth. Input compound: CC1=CCC(OC(=O)C(C)(C)CCC(O)(C(=O)OC2(C(C)C)CCC3(C)OC3C2)C(C)C)(C(C)C)CC1 (configuration not stated)
Result: -91.6

Task: Return reported growth. Input compound: O=C(Nc1ccc(I)cc1F)c1cc(Br)ccc1O
Result: -26.5

---

Measured growth by item
- Tested on: CCRF-CEM leukemia
- test-details: NCI-60 one-dose screen, 48 h (100 = growth as untreated, 0 = no growth, -100 = all killed)
- condition-notes: 10 µM unless noted
The panel holds about 83,000 compounds, 20% with a hit somewhere; the sample as a whole holds those more often.
Number only, in %; omit the unit.

Answered cases to consult:
Cc1ccc(C(=O)c2oc3ccc4c(C)cc(=O)oc4c3c2C)cc1 ... 17.1
O=C(CSc1ccc2nnc(-c3cccc(F)c3)n2n1)Nc1ccc2c(c1)OCO2 ... 32.5
COC(=O)c1c2c(c(C)[n+]([O-])c1C)C(=O)C=C(NCc1ccc(F)c(F)c1)C2=O ... 5.3

Turning to the following compound.
Task: Return reported growth. Input compound: COc1ccc(N)c(-c2cc3c(c4c2[nH]c2ccc(OC)cc24)CCCC3)c1
Result: 55.4

---

- Test system: MDA-MB-435 melanoma
- test-details: NCI-60 one-dose screen, 48 h (100 = growth as untreated, 0 = no growth, -100 = all killed)
- condition-notes: 10 µM unless noted
Compounds without any hit were thinned out: in the full panel of roughly 83,000, 20% have a hit.
Measured growth by item
Number only, in %; omit the unit.

Answered cases to consult:
CC1=C(C(=O)OCC2CCN(C(=O)OC(C)(C)C)CC2)[C@@H](c2cccc(C#N)c2)C2=C(CC(C)(C)CC2=O)N1 ... 41.4
CC(C)CCOc1ccc(-c2n[nH]c(C(F)(F)F)c2-c2cncc(C#N)c2)c(O)c1 ... 7.91
COc1cc(/C=C/C(=O)c2ccc(Nc3nc(NCCO)nc(N4CCOCC4)n3)cc2)cc(OC)c1OC ... 10.1

Task: Return reported growth. Input compound: O=c1oc2ccc(I)cc2c(=O)n1-c1ccc(Br)cc1F
Result: -3.14

Task: Return reported growth. Input compound: COc1cc(/C=C/C(=O)c2ccc(Cl)cc2)cc(CN2CCCCC2)c1O
Result: 74

Task: Return reported growth. Input compound: Cc1ccc(C2CC(c3ccc(Nc4nc(NCCO)nc(Nc5ccc(Cl)cc5)n4)cc3)=NN2c2cc(Cl)cc(Cl)c2)cc1 (centres undefined)
Result: 98.8

Task: Return reported growth. Input compound: O=C(NC1C(O)OC(CO)C(O)C1O)NS(=O)(=O)c1ccc(Cl)cc1 (centres undefined)
Result: 100

Task: Return reported growth. Input compound: COc1ccc(Br)c(/C=C2\SC(=Nc3ccc(O)cc3)NC2=O)c1
Result: 87.2

Task: Return reported growth. Input compound: CCCCC1COc2cccc3c2N1C=C/C3=C\C(=O)N(C)c1ccccc1 (centres undefined)
Result: 69

Task: Return reported growth. Input compound: COc1ccc(/C=C/C(=O)c2c(C)nc3ccccc3c2/C=C/c2ccccc2)cc1O
Result: 1.85

Task: Return reported growth. Input compound: Nc1ccc(-c2nn3c(CCC(=O)c4nc5ncccc5[nH]4)nnc3s2)c(O)c1
Result: 97.2

Task: Return reported growth. Input compound: c1ccc(CNc2nc(Nc3ccccc3)nc3ccccc23)cc1
Result: 11.7

Task: Return reported growth. Input compound: Nc1ccc(-n2c(=O)oc3ccc(Cl)cc3c2=O)c(Cl)c1
Result: -5.78

Task: Return reported growth. Input compound: O=c1oc2ccc(Br)cc2c(=O)n1-c1ccc(F)cc1F
Result: 2.57
